test: VP16 counterscreen qHTS for inhibitors of ROR gamma transcriptional activity; conditions: Drosophila S2 Gal4-VP16 UAS-luciferase, luminescence, 20 h; series mostly up to 53.6 µM;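 note: Gal4-VP16 expression switched on by copper sulfate through the metallothionein promoter; nearly all actives have a fitted effect of over 50% in size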
In all, about 310,000 compounds went through this assay and about 11,000 (3.5%) were called active. Inconclusive results (about 8%) are left out. Calls come from the whole dose curve; as a rule, active = well fitted inhibition curve with a large enough effect; inconclusive = small, poorly fitted or top-dose-only effect, or effect the other way; inactive = flat fitted curve, though single readings scatter. Shown is part of a subset that was picked to be rich in actives.
Lab note: assign the record to one of 1 (yes) (active), 0 (no) (inactive)

Molecule: CC1CN(C(=S)Nc2cccc(F)c2)CC(C)O1 (stereo unspecified)
Qualitative label: 0 (no)

Molecule: COc1ccccc1CN1CCNC(=O)C1CC(=O)N(C)CC1CCOCC1 (stereo unspecified)
Qualitative label: 0 (no)

Molecule: COc1ccc(N(CC(=O)NCc2ccc(F)cc2)C(=O)CCC(=O)Nc2nccs2)cc1
Qualitative label: 0 (no)

Molecule: CCCCN1C(=O)/C(=C2/Sc3ccc(Cl)cc3N2CC)SC1=S
Qualitative label: 0 (no)

Exam item: Hi, do you know how COc1ccccc1CCNC(=O)c1c(C)nn(CC(C)C)c1Cl came out in this test?
Marked response: 0 (no)

Exam item: Hi, do you know how O=C(/C=C/c1ccc(Cl)c([N+](=O)[O-])c1)c1cccnc1 came out in this test?
Marked response: 0 (no)

Exam item: Hi, do you know how Cc1ccsc1C(=O)OCC(=O)c1cc(C)n(CC2CCCO2)c1C (stereo unspecified) came out in this test?
Marked response: 1 (yes)

###

experiment: VP16 counterscreen qHTS for inhibitors of ROR gamma transcriptional activity; conditions: Drosophila S2 Gal4-VP16 UAS-luciferase, luminescence, 20 h; series mostly up to 53.6 µM;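 note: Gal4-VP16 expression switched on by copper sulfate through the metallothionein promoter; nearly all actives have a fitted effect of over 50% in size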
Hit rate of the full screen: of about 310,000 compounds, about 11,000 (3.5%) were called active. Not shown: some 8% with an inconclusive outcome. The call rests on the fitted dose curve; in most records, active means well fitted inhibition curve with a large enough effect; inconclusive means small, poorly fitted or top-dose-only effect, or effect the other way; inactive means flat fitted curve, though single readings scatter. The entries come from a sample that favours actives as a whole.
Lab note: assign the record to one of yes for active, no for inactive

Compound: COc1ccc(CN(C)C(=O)c2cc(-c3ccc(C)cc3C)nc3ccccc23)c(OC)c1OC
Qualitative label: no

Compound: COc1ccccc1C(=O)NNC(=O)CCN1C(=O)/C(=C\c2ccccc2)SC1=S
Qualitative label: no

Compound: Cc1n[nH]c(=O)nc1N/N=C/c1cccs1
Qualitative label: yes

Compound: CC1(C)NC(=O)N(CC(=O)Nc2cc(C(F)(F)F)cc(C(F)(F)F)c2)C1=O
Qualitative label: no

Compound: CC(=O)c1ccc(NC(=O)c2ccc(-n3cncn3)c([N+](=O)[O-])c2)cc1
Qualitative label: no

Compound: O=C(CCCN1C(=O)/C(=C/c2ccccc2)SC1=S)Nc1ccc(O)cc1
Qualitative label: yes

Compound: O=C(Nc1ccc(C(=O)NCc2ccccc2Cl)cc1)C1=CSCCO1
Qualitative label: no

Compound: CCCn1c2ccccc2c2cnn(CC(=O)NCCCN3CCCCC3CC)c(=O)c21 (configuration not stated)
Qualitative label: no

Exam item: Hi, do you know how Cc1ccc(/C=C2\SC(=S)N(CCC(=O)Nc3ccc(O)cc3)C2=O)cc1 came out in this test?
Marked response: no

Exam item: Hi, do you know how COc1cc2c(cc1OC)C(C)N(S(=O)(=O)c1cnc(Cl)c(Cl)c1)CC2 (configuration not stated) came out in this test?
Marked response: no

Exam item: Hi, do you know how CCC(=O)c1ccc(OC(=O)/C=C/c2cc(OC)c(OC)c(OC)c2)cc1 came out in this test?
Marked response: no

Exam item: Hi, do you know how COc1ccc(Nc2ncnc3ccc(OC)cc23)cc1 came out in this test?
Marked response: no

Exam item: Hi, do you know how COc1ccc2[nH]c(C(=O)N/N=C/c3cc(OC)c(OC)c(OC)c3)cc2c1 came out in this test?
Marked response: no

Exam item: Hi, do you know how Cc1cccn2cc(-c3cccc(S(=O)(=O)N4CCCCC4)c3)nc12 came out in this test?
Marked response: no

Exam item: Hi, do you know how COc1ccccc1NC(=O)c1ccc(N2CC3CC(C2)c2cccc(=O)n2C3)c(NC(=O)c2cccnc2)c1 (configuration not stated) came out in this test?
Marked response: no
